# credit: ChEMBL document CHEMBL1129974

# System name: Human immunodeficiency virus type 1 integrase (Human immunodeficiency virus 1)
# Experimental details: Inhibitory concentration against purified recombinant integrase by 3'-processing in vitro assay
Measured attribute: pIC50
// returns pIC50 (minus log10 of molar concentration), number only

Q: Supply pIC50 value. Item: O=C1Oc2ccccc2C(O)C1C(c1ccccc1)C1C(=O)Oc2ccccc2C1O (centres undefined)
Ans: 4.36

Q: Supply pIC50 value. Item: O=C(N/N=C/c1ccc(O)cc1O)N/N=C/c1ccc(O)cc1O
Ans: 4.59

Q: Supply pIC50 value. Item: O=C(NNC(=O)c1ccccc1O)c1ccccc1O.O=C(NNCC(O)COc1ccccc1)c1ccccc1O (centres undefined)
Ans: 5.70

Q: Supply pIC50 value. Item: O=C(NCO)NCOCn1c(=O)n(CO)c(=O)n(CO)c1=O
Ans: 5.28

* * *

# System name: Human immunodeficiency virus type 1 integrase (Human immunodeficiency virus 1, UniProt Q7ZJM1)
# Sequence (Q7ZJM1 whole entry): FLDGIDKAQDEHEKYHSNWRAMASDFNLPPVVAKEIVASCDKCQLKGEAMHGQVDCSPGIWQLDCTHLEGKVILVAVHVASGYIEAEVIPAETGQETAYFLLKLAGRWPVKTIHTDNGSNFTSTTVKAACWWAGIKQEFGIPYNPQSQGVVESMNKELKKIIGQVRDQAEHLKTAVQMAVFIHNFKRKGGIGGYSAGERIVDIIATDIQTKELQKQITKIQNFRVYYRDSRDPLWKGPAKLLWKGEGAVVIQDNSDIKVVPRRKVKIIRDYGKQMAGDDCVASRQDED
# Experimental details: Inhibitory concentration against purified recombinant integrase by 3'-processing in 3D search (experiment 1)
Record form. Attribute: log10(IC50). Fill in for each entry.
All values: base-10 log of IC50 in µM.

Q: Supply log10(IC50) value. Item: C[C@H]1C(=O)c2c(cc(O)c(C3OC(CO)C(O)C(O)C3O)c2O)OC1c1ccc(O)c(O)c1 (some centres not stated)
Ans: 2.25

Q: Supply log10(IC50) value. Item: O=C(CC(O)(c1ccccc1)c1ccc(Cl)cc1)NC(=O)c1ccccc1O (configuration not stated)
Ans: 2.26

Q: Supply log10(IC50) value. Item: CCC/C=C/C=C/[C@@H]1C[C@@H](O)[C@@H](O)C(=O)[C@H]1CO
Ans: 2.54

Q: Supply log10(IC50) value. Item: O=C(NO)/C(CC(=O)c1ccc(O)cc1O)=N\O
Ans: 1.48

Q: Supply log10(IC50) value. Item: O=C(CCCCC(=O)c1ccc(O)cc1O)OCCO
Ans: 2.47

Q: Supply log10(IC50) value. Item: COc1cc(N)ccc1C(=O)NC(CCC(=O)O)C(=O)O (configuration not stated)
Ans: 2.36

Q: Supply log10(IC50) value. Item: COc1cc2oc(-c3ccc(O)cc3)cc(=O)c2c(O)c1C1OC(CO)C(O)C(O)C1O (configuration not stated)
Ans: 2.35

* * *

# System name: UniProt Q7ZJM1
# Experimental details: Inhibitory concentration against purified recombinant integrase by strand transfer in vitro assay
Record form. Attribute: pIC50. Fill in for each entry.
// returns pIC50 (minus log10 of molar concentration), number only

Q: Specify pIC50 for O=C(NNC(=O)c1ccccc1O)c1ccccc1O.O=C(NNCC(O)COc1ccccc1)c1ccccc1O (stereo not drawn) , system UniProt Q7ZJM1.
Ans: 5.82

Q: Specify pIC50 for O=C1Oc2ccccc2C(O)C1C(c1ccccc1)C1C(=O)Oc2ccccc2C1O (stereo not drawn) , system UniProt Q7ZJM1.
Ans: 4.41

Q: Specify pIC50 for O=C(NCO)NCOCn1c(=O)n(CO)c(=O)n(CO)c1=O , system UniProt Q7ZJM1.
Ans: 5.30

* * *

# System name: Human immunodeficiency virus type 1 integrase (Human immunodeficiency virus 1) (UniProt Q7ZJM1)
# Experimental details: Percentage inhibition was obtained by performing in vitro assay on purified recombinant integrase by 3''-processing method at 100 micro g/mL (experiment 2)
Record form. Attribute: inhibition. Fill in for each entry.
# include the unit after the value

Q: Supply inhibition value. Item: O=c1ccc2cc(O[C@@H]3O[C@H](CO)[C@@H](O)[C@H](O)[C@H]3O)c(O)cc2o1
Ans: 29.6%

Q: Supply inhibition value. Item: O=C(N/N=C/c1ccccc1O)C(O)(c1ccccc1)c1ccccc1
Ans: 56.7%

Q: Supply inhibition value. Item: CCN(CC)CCCC(C)Nc1ccnc2ccc(Cl)nc12 (stereo not given)
Ans: 30.6%

Q: Supply inhibition value. Item: O=C(NCO)c1ccccc1O
Ans: 10.2%

Q: Supply inhibition value. Item: O=C(CC(O)c1cccnc1)CC(O)c1cccnc1 (stereo not given)
Ans: 19.1%

Q: Supply inhibition value. Item: CCN(CC)CCCC(C)Nc1cc(F)cc2cccnc12 (stereo not given)
Ans: 41.2%

Q: Supply inhibition value. Item: O=C(NN(CCO)CCO)c1ccccc1
Ans: 43.9%

Q: Supply inhibition value. Item: COc1cc2oc(-c3ccc(O)cc3)cc(=O)c2c(O)c1C1OC(CO)C(O)C(O)C1O (stereo not given)
Ans: 43.4%

Q: Supply inhibition value. Item: O=C(OCCO)c1ccccc1O
Ans: 2.6%

Q: Supply inhibition value. Item: Cc1cc(CC(=O)NCCO)n(CCO)c(=O)c1
Ans: 30.3%

Q: Supply inhibition value. Item: O=C(N/N=C/c1ccccc1O)C(O)c1ccccc1 (stereo not given)
Ans: 45.8%

Q: Supply inhibition value. Item: CCCCCCCCCCCCCCCCCCCN1CN(CO)CN(CO)C1=O
Ans: 43.2%

Q: Supply inhibition value. Item: O=C(CC(=O)Nc1ccccc1O)Nc1ccccc1O
Ans: 17.6%

Q: Supply inhibition value. Item: O=C(O)CNC(=O)c1ccccc1O
Ans: 33.3%

Q: Supply inhibition value. Item: O=C(NCCO)c1cc(Cl)ccc1O
Ans: 2.2%
